Test: Biodistribution in PC-3 tumor-bearing CB17-SCID mice
Assay type: in vivo
Details: mouse, bone, intravenous, 100 pmol, ^68Ga-labeled; 1 h p.i.; 100 pmol; n = 4; read-out: Uptake in Bone
Starred links: 1 amine or outer side, 2 acyl side, 3 side chain; linkers in the order of their positions; H or OH if unused. Non-standard residues stand in square brackets, D forms with d. Residues, ends and D or L forms follow the SMILES beside them. *: point of attachment. DOTA = O=C(O)CN1CCN(CC(=O)O)CCN(CC(=O)*)CCN(CC(=O)O)CC1; Sta = CC(C)C[C@H](N)[C@@H](O)CC(=O)O; Bta = N[C@@H](Cc1csc2ccccc12)C(=O)O; X1 = O=C(CN1CCC(N[*:1])CC1)[*:2]; hSer = N[C@@H](CCO)C(=O)O
Test readout: tissue uptake at 1 h (%ID/g)
Output spec: scalar in %ID/g, unitless text.

{"columns": ["Molecule", "tissue uptake at 1 h [%ID/g]"],
 "data": [
  ["CC(C)C[C@H](NC(=O)C[C@H](O)[C@H](CC(C)C)NC(=O)[C@H](Cc1c[nH]cn1)NC(=O)CNC(=O)[C@@H](NC(=O)[C@H](C)NC(=O)[C@H](Cc1csc2ccccc12)NC(=O)[C@H](CCC(N)=O)NC(=O)[C@@H](Cc1ccccc1)NC(=O)CN1CCC(NC(=O)CN2CCN(CC(=O)O)CCN(CC(=O)O)CCN(CC(=O)O)CC2)CC1)C(C)C)C(N)=O [[^68Ga]Ga-[Bta^8]RM2, metal not drawn] ({DOTA}-[X1][dF]Q[Bta]AVGH[Sta]L-NH2)", 0.3]
]}

Moving on to another molecule below.
Specify tissue uptake at 1 h for CC(C)C[C@H](NC(=O)C[C@H](O)[C@H](CC(C)C)NC(=O)[C@H](Cc1c[nH]cn1)NC(=O)CNC(=O)[C@@H](NC(=O)[C@H](C)NC(=O)[C@H](Cc1c[nH]c2ccccc12)NC(=O)[C@H](CCO)NC(=O)[C@@H](Cc1ccccc1)NC(=O)CN1CCC(NC(=O)CN2CCN(CC(=O)O)CCN(CC(=O)O)CCN(CC(=O)O)CC2)CC1)C(C)C)C(N)=O [[^68Ga]Ga-[Hse^7]RM2, metal not drawn] ({DOTA}-[X1][dF][hSer]WAVGH[Sta]L-NH2) and stop.
0.98

----------
Assay: Biodistribution in PC-3 tumor-bearing CB17-SCID mice
Type: in vivo
Conditions: mouse, lung, intravenous, 100 pmol, ^68Ga-labeled; 1 h p.i.; 100 pmol; n = 4; read-out: Uptake in Lung
Procedure: To establish tumor xenografts, PC-3 cells (5.0 × 10^6 cells per 200 µL) were suspended in a 1/1 mixture (v/v) of Dulbecco’s modified eagle's medium/Ham’s F-12 with Glutamax-I (v/v = 1/1) and Cultrex® Basement Membrane Matrix Type 3 (Trevigen Inc., Gaithersburg, MD, USA) and inoculated subcutaneously onto the right shoulder of CB17-SCID mice (Charles River Laboratories International Inc., Sulzfeld, Germany). […] Biodistribution. […] Selected organs were removed, weighted and measured in a γ-counter.
Starred links: 1 amine or outer side, 2 acyl side, 3 side chain; linkers in the order of their positions; H or OH if unused. Non-standard residues stand in square brackets, D forms with d. Residues, ends and D or L forms follow the SMILES beside them. *: point of attachment. DOTA = O=C(O)CN1CCN(CC(=O)O)CCN(CC(=O)*)CCN(CC(=O)O)CC1; Sta = CC(C)C[C@H](N)[C@@H](O)CC(=O)O; Bta = N[C@@H](Cc1csc2ccccc12)C(=O)O; X1 = O=C(CN1CCC(N[*:1])CC1)[*:2]; hSer = N[C@@H](CCO)C(=O)O
Test readout: tissue uptake at 1 h (%ID/g)
Output spec: scalar in %ID/g, unitless text.

{"columns": ["Compound", "Units label", "Quantitative readout"],
 "data": [
  ["CC(C)C[C@H](NC(=O)C[C@H](O)[C@H](CC(C)C)NC(=O)[C@H](Cc1c[nH]cn1)NC(=O)CNC(=O)[C@@H](NC(=O)[C@H](C)NC(=O)[C@H](Cc1csc2ccccc12)NC(=O)[C@H](CCC(N)=O)NC(=O)[C@@H](Cc1ccccc1)NC(=O)CN1CCC(NC(=O)CN2CCN(CC(=O)O)CCN(CC(=O)O)CCN(CC(=O)O)CC2)CC1)C(C)C)C(N)=O [[^68Ga]Ga-[Bta^8]RM2, metal not drawn] ({DOTA}-[X1][dF]Q[Bta]AVGH[Sta]L-NH2)", "%ID/g", 0.92]
]}

Specify tissue uptake at 1 h for CC(C)C[C@H](NC(=O)C[C@H](O)[C@H](CC(C)C)NC(=O)[C@H](Cc1c[nH]cn1)NC(=O)CNC(=O)[C@@H](NC(=O)[C@H](C)NC(=O)[C@H](Cc1c[nH]c2ccccc12)NC(=O)[C@H](CCO)NC(=O)[C@@H](Cc1ccccc1)NC(=O)CN1CCC(NC(=O)CN2CCN(CC(=O)O)CCN(CC(=O)O)CCN(CC(=O)O)CC2)CC1)C(C)C)C(N)=O [[^68Ga]Ga-[Hse^7]RM2, metal not drawn] ({DOTA}-[X1][dF][hSer]WAVGH[Sta]L-NH2) and stop.
2.33
